CC50 data for MA-104 follow.

The cases that follow already have their CC50 on record.
CC(C)n1ncc2c(C(=O)Nc3ccc(F)cc3)cc(-c3cccs3)nc21 [JX-017] :: > 100 µM
CC(C)n1ncc2c(C(=O)Nc3cccc(S(N)(=O)=O)c3)cc(-c3cccs3)nc21 [JX-025] :: > 100 µM

Please find the next compound below.
Query: API: value(readout=CC50, system=MA-104) for record CC(C)n1ncc2c(C(=O)Nc3ccc(F)cc3F)cc(-c3cccs3)nc21 [JX-008]
Reply: > 100 µM

* * *

System: Coxsackievirus B2
Assay: microbe, parasite or virus in culture
Type: cell-based
Conditions: read-out: EC50 CVB2
measured.attribute: EC50 (µM)
Expressed in µM, but write only the number.

The cases that follow already have their EC50 on record.
CC(C)n1ncc2c(C(=O)Nc3ccc(F)cc3)cc(-c3cccs3)nc21 :: 1
CC(C)n1ncc2c(C(=O)Nc3cccc(S(=O)(=O)N(C)C)c3)cc(-c3cccs3)nc21 :: 1.2

Query: Recorded EC50 for CC(C)n1ncc2c(C(=O)Nc3ncccn3)cc(-c3ccsc3)nc21 , please?
Reply: 1.2

Query: Recorded EC50 for CC(C)n1ncc2c(C(=O)Nc3cccc(S(N)(=O)=O)c3)cc(-c3cccs3)nc21 , please?
Reply: 1.2

Query: Recorded EC50 for CC(C)n1ncc2c(C(=O)Nc3ccccn3)cc(-c3ccsc3)nc21 , please?
Reply: 1.2

* * *

Tested on: Poliovirus 3
Assay: microbe, parasite or virus in culture
Format: cell-based
Settings: read-out: EC50 PV3
measured.attribute: EC50

The cases that follow already have their EC50 on record.
CC(C)n1ncc2c(C(=O)Nc3cccc(F)c3)cc(-c3cccs3)nc21 :: > 25 µM
CC(C)n1ncc2c(C(=O)Nc3cncnc3)cc(-c3cccs3)nc21 :: > 10 µM
CC(C)n1ncc2c(C(=O)Nc3ccc(F)cc3F)cc(-c3cccs3)nc21 :: > 25 µM
CC(C)n1ncc2c(C(=O)N(C)c3ccccn3)cc(-c3cccs3)nc21 :: > 10 µM
CC(C)n1ncc2c(C(=O)Nc3ccccn3)cc(C3CC3)nc21 :: > 10 µM

Query: Recorded EC50 for CC(C)n1ncc2c(C(=O)Nc3ncccn3)cc(-c3ccsc3)nc21 , please?
Reply: > 10 µM

Query: Recorded EC50 for CC(C)n1ncc2c(C(=O)Nc3ccccn3)cc(-c3cccs3)nc21 , please?
Reply: > 10 µM

Query: Recorded EC50 for CC(C)n1ncc2c(C(=O)Nc3cccc(F)c3F)cc(-c3cccs3)nc21 , please?
Reply: > 25 µM

Query: Recorded EC50 for CC(C)n1ncc2c(C(=O)Nc3ncccn3)cc(-c3cccs3)nc21 , please?
Reply: > 10 µM

Query: Recorded EC50 for CC(C)n1ncc2c(C(=O)Nc3c(F)cccc3F)cc(-c3cccs3)nc21 , please?
Reply: > 25 µM

* * *

The entries below come with measured EC50 values attached.
Test system: Coxsackievirus B2
Assay: microbe, parasite or virus in culture
Assay type: cell-based
Conditions: read-out: EC50 CVB2
Expressed in µM, but write only the number.

The cases that follow already have their EC50 on record.
CC(C)n1ncc2c(C(=O)Nc3cc(C(N)=O)ccc3F)cc(-c3cccs3)nc21 [JX-073] :: 1.2
CC(C)n1ncc2c(C(=O)Nc3ccncn3)cc(-c3ccsc3)nc21 [JX-059] :: 1.2

Please find the next compound below.
Query: Recorded EC50 for CC(C)n1ncc2c(C(=O)N3CCc4cc(F)ccc43)cc(-c3cccs3)nc21 [JX-048] , please?
Reply: 1.5

Source listed as patent US11787799B2.
